Menin/Histone-lysine N-methyltransferase MLL (Homo sapiens, UniProt O00255) data, read-out IC50
Sequence (O00255 whole entry): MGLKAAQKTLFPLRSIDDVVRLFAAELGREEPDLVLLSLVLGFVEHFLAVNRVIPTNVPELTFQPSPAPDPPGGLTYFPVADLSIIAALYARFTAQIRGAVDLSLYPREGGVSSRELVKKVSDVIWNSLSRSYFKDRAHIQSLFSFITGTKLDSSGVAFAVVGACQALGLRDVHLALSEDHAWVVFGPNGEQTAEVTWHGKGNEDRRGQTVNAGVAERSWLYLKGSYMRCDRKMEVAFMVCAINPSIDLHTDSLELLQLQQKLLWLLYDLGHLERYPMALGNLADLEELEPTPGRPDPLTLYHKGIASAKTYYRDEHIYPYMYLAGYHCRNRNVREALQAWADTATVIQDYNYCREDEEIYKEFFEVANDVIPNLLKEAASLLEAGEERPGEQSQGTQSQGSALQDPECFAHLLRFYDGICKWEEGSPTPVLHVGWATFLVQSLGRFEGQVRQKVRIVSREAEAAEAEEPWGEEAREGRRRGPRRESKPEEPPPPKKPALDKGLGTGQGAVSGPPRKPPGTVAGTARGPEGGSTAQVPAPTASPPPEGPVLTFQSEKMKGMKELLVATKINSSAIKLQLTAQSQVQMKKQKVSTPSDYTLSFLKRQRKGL
Sequence (Q03164 1-2718 partner limits assumed): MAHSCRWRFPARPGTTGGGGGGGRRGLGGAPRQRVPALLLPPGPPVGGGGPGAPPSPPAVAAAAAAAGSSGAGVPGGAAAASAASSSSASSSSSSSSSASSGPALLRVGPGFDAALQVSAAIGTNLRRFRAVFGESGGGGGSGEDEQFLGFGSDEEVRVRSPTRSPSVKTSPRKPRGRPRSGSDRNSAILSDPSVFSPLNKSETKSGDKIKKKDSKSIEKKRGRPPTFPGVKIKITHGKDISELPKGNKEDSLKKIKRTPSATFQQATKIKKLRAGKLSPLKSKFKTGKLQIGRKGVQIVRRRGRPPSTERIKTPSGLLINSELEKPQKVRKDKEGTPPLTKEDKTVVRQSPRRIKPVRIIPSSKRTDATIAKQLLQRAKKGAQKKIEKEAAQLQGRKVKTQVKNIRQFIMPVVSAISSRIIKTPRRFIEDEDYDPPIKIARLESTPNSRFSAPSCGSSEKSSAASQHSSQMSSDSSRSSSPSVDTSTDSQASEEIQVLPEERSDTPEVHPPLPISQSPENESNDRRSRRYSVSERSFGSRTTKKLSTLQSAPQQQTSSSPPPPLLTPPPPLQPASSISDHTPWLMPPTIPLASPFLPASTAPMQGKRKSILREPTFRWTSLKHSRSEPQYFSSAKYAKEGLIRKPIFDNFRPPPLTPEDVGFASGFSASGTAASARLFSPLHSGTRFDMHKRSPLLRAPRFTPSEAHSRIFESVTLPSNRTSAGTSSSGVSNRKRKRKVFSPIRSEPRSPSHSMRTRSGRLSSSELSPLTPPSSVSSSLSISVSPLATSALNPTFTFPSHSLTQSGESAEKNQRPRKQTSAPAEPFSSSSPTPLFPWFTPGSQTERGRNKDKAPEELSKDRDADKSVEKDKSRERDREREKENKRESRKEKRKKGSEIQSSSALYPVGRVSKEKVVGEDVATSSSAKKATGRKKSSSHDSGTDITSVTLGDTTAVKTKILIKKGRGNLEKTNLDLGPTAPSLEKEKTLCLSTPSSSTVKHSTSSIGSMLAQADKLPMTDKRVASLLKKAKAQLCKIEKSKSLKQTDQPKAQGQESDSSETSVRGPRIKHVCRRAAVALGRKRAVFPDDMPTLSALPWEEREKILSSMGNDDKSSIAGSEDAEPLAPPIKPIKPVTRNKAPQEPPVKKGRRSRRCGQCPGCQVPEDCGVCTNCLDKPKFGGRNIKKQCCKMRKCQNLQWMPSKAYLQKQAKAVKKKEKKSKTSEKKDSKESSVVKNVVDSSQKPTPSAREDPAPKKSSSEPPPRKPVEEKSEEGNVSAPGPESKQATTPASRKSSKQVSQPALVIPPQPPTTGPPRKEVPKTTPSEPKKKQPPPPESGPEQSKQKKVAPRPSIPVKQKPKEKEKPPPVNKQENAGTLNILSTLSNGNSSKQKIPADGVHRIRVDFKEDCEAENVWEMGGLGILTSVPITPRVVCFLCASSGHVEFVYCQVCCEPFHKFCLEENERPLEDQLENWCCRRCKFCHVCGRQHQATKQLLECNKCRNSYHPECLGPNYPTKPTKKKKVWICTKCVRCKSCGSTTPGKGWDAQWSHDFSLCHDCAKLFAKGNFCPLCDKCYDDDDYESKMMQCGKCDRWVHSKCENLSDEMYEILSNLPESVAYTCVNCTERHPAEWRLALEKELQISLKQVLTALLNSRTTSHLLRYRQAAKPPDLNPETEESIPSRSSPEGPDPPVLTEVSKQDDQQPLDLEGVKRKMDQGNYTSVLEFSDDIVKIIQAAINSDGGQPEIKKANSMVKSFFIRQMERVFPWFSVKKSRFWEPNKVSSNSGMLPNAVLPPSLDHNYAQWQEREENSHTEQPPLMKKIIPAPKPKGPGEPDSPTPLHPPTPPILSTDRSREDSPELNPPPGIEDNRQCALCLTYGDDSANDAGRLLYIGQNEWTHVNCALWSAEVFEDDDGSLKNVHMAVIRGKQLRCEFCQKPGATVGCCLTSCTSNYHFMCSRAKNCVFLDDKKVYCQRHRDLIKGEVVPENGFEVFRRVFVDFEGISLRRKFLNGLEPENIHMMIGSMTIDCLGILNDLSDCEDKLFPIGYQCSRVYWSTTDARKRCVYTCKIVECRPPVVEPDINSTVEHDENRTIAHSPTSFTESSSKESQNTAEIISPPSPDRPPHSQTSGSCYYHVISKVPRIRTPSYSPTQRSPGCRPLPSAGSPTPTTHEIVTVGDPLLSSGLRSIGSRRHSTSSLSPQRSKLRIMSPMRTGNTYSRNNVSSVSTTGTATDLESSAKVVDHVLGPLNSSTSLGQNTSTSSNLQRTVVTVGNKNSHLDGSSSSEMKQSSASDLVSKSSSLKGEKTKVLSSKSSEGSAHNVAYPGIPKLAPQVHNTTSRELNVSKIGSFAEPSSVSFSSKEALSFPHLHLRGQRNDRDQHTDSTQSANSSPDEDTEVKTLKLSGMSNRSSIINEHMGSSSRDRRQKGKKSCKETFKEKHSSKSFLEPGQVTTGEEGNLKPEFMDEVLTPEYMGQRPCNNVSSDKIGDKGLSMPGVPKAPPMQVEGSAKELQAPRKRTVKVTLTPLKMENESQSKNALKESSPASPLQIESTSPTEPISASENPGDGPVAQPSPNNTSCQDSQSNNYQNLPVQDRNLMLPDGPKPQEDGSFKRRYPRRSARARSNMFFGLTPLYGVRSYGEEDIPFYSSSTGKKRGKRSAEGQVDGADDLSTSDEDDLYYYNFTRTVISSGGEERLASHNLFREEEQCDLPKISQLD
Sequence (Q03164 2719-3969 partner limits assumed): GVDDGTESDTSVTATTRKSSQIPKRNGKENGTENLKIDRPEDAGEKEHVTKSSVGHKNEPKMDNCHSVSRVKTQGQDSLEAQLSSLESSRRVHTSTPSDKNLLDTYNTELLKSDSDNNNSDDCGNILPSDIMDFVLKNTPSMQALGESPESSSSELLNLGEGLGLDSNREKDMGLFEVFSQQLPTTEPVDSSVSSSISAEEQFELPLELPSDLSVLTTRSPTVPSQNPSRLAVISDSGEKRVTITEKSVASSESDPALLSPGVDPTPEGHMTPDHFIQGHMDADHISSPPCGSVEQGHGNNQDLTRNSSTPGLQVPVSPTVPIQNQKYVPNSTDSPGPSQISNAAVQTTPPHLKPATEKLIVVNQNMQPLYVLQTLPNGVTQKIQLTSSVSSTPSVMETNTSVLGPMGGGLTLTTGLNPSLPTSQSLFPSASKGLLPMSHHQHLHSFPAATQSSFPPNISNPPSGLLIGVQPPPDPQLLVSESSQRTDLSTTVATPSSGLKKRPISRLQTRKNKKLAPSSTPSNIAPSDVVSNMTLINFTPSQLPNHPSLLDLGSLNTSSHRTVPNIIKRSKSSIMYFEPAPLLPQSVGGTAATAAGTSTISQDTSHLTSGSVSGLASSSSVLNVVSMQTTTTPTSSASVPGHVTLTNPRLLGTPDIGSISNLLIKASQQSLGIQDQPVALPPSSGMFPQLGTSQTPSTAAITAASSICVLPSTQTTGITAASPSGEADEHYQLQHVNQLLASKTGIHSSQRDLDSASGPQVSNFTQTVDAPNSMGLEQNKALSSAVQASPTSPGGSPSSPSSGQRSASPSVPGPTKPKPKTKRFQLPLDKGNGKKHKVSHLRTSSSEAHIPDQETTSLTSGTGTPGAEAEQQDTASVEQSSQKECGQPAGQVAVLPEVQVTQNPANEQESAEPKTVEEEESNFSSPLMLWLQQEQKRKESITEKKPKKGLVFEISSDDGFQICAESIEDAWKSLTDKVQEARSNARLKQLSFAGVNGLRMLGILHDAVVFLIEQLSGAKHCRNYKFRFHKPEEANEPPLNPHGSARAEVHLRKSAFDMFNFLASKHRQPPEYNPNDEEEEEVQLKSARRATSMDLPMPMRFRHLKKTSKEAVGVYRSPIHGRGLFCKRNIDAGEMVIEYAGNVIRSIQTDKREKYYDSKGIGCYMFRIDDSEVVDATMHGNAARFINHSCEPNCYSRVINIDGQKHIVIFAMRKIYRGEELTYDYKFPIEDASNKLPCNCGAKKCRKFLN
Observation Type: IC50 (µM)

>>> recorded_measurement("Fc1ccc([C@@H]2C[C@H]2NCC2CCN(c3ncnc4sc(CC(F)(F)F)cc34)CC2)cc1F")
30.9
>>> recorded_measurement("FC(F)(F)Cc1cc2c(N[C@H]3CC[C@@H](N[C@H]4C[C@@H]4c4ccccc4)CC3)ncnc2s1")
24.7

(I) FC(F)(F)Cc1cc2c(N[C@H]3CC[C@H](N[C@@H]4C[C@H]4c4ccccc4)CC3)ncnc2s1
(II) FC(F)(F)Cc1cc2c(N3CCC(N[C@@H]4C[C@H]4c4ccccc4)CC3)ncnc2s1
Request: Given I and given II , which shows the smaller recorded IC50? // return label of chosen record
Response: II
(II: 10.2 µM, I: 36.9 µM)

====

Target: UniProt O60341
pIC50: −log10 of the molar value.
Observation Type: pIC50

The following compounds have reported results that may help.
>>> recorded_measurement("Fc1ccc([C@@H]2C[C@H]2N[C@H]2CC[C@@H](Nc3ncnc4sc(CC(F)(F)F)cc34)CC2)cc1F")
7.18
>>> recorded_measurement("Fc1ccc([C@@H]2C[C@H]2N[C@H]2CC[C@H](Nc3ncnc4sc(CC(F)(F)F)cc34)CC2)cc1F")
6.83
>>> recorded_measurement("FC(F)(F)Cc1cc2c(N[C@H]3CC[C@@H](N[C@@H]4C[C@H]4c4ccccc4)CC3)ncnc2s1")
6.91
>>> recorded_measurement("Fc1ccc([C@@H]2C[C@H]2NC[C@H]2CC[C@H](Nc3ncnc4sc(CC(F)(F)F)cc34)CC2)cc1F")
6.44
>>> recorded_measurement("FC(F)(F)Cc1cc2c(N[C@H]3CC[C@H](N[C@H]4C[C@@H]4c4ccccc4)CC3)ncnc2s1")
6.73

(P) Fc1ccc([C@@H]2C[C@H]2NC2CCN(c3ncnc4sc(CC(F)(F)F)cc34)CC2)cc1F
(Q) FC(F)(F)Cc1cc2c(N[C@H]3CC[C@H](CN[C@@H]4C[C@H]4c4ccccc4)CC3)ncnc2s1
(R) FC(F)(F)Cc1cc2c(N3CCC(CN[C@H]4C[C@@H]4c4ccccc4)CC3)ncnc2s1
Request: Falling order of pIC50, please. Please write the labels in the order that was asked for.
Response: R, Q, P

====

pIC50: −log10 of the molar value.
UniProt P21397 data, read-out pIC50
Observation Type: pIC50

>>> recorded_measurement("Fc1ccc([C@@H]2C[C@H]2N[C@H]2CC[C@H](Nc3ncnc4sc(CC(F)(F)F)cc34)CC2)cc1F")
4.32
>>> recorded_measurement("FC(F)(F)Cc1cc2c(N3CCC(CN[C@H]4C[C@@H]4c4ccccc4)CC3)ncnc2s1")
5.04
>>> recorded_measurement("FC(F)(F)Cc1cc2c(N[C@H]3CC[C@H](N[C@@H]4C[C@H]4c4ccccc4)CC3)ncnc2s1")
4.18
>>> recorded_measurement("FC(F)(F)Cc1cc2c(N[C@H]3CC[C@H](N[C@H]4C[C@@H]4c4ccccc4)CC3)ncnc2s1")
4.89
>>> recorded_measurement("Fc1ccc([C@@H]2C[C@H]2N[C@H]2CC[C@@H](Nc3ncnc4sc(CC(F)(F)F)cc34)CC2)cc1F")
4.39
>>> recorded_measurement("FC(F)(F)Cc1cc2c(N[C@H]3CC[C@@H](N[C@@H]4C[C@H]4c4ccccc4)CC3)ncnc2s1")
5.34

(P) FC(F)(F)Cc1cc2c(N3CCC(N[C@H]4C[C@@H]4c4ccccc4)CC3)ncnc2s1
(Q) FC(F)(F)Cc1cc2c(N[C@H]3CC[C@H](CN[C@@H]4C[C@H]4c4ccccc4)CC3)ncnc2s1
(R) Fc1ccc([C@@H]2C[C@H]2NCC2CCN(c3ncnc4sc(CC(F)(F)F)cc34)CC2)cc1F
Request: List the 3 entries from lowest pIC50 to highest pIC50 value. Please write the labels in the order that was asked for.
Response: R, P, Q
(R: 4.68, P: 5.08, Q: 5.39)
